The entries below are paired with their reported Jagged1 IC50.
biological target: human Notch2 on U-87 MG cells (human, UniProt Q04721 26-2471); experiment: cell-based or functional assay
Sequence (Q04721 26-2471): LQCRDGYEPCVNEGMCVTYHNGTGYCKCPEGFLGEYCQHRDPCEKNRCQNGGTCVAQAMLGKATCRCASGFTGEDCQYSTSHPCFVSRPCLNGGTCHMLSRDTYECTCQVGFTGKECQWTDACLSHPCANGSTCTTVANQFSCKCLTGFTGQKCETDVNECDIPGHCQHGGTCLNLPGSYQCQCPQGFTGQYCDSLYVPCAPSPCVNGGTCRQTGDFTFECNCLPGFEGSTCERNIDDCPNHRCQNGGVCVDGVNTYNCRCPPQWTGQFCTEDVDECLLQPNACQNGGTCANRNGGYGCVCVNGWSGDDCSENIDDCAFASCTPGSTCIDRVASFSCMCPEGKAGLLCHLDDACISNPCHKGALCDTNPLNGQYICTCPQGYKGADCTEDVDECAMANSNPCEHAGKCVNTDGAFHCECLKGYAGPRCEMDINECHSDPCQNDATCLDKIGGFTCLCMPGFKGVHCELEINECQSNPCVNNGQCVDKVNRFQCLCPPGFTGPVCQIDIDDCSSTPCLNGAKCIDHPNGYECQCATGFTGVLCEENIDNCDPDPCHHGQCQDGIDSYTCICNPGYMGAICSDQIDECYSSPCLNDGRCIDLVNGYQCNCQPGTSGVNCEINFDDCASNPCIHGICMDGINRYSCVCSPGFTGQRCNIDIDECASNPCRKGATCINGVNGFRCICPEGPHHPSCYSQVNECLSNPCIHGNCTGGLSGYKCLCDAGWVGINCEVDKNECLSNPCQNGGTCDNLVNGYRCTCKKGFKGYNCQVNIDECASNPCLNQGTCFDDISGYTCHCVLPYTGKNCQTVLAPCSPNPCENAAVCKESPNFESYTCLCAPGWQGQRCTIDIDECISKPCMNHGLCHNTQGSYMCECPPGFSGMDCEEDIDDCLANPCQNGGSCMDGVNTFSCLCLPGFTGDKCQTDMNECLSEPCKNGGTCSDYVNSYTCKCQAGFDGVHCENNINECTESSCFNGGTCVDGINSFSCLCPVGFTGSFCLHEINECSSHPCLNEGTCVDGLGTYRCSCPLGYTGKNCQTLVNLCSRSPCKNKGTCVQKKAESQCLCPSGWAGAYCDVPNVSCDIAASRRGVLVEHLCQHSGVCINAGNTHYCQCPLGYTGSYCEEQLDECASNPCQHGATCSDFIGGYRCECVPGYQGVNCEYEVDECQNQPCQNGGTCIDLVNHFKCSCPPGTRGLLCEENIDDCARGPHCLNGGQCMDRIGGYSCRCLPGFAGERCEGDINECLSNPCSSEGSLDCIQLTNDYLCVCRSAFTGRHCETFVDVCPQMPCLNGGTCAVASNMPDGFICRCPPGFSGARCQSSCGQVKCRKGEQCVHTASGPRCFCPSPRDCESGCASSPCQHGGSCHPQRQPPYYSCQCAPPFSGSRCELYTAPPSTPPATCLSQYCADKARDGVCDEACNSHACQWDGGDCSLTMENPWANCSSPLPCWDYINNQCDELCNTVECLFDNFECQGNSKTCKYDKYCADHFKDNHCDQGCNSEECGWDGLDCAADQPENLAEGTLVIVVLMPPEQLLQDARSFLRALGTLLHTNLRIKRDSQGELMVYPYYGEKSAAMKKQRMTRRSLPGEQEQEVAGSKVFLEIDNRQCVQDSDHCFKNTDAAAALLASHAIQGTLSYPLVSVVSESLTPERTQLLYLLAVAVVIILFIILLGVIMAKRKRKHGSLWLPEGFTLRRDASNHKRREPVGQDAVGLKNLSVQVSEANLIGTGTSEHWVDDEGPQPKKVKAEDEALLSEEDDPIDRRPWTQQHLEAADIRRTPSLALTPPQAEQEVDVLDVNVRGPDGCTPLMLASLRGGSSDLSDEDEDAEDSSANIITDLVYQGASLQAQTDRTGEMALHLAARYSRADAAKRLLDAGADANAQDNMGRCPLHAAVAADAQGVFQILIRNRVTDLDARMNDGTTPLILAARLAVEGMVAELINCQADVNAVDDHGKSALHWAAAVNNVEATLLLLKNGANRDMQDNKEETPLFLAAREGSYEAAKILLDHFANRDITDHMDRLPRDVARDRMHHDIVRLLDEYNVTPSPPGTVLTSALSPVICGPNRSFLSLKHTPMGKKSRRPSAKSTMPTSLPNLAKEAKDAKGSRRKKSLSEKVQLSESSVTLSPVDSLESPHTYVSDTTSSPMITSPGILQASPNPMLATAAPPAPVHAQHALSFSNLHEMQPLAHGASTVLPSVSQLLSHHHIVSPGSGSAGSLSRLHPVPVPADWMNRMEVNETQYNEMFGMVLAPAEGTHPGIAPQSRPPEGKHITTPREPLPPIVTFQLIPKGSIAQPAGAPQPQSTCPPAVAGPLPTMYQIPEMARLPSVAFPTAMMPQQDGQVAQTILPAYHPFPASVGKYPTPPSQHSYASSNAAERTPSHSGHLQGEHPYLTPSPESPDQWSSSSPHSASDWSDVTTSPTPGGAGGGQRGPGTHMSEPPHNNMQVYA
// note: answer is a bare numeric in nM

binder="hu.3107.L1H15 (antibody, V domains shown, also called hu.Notch-3107.L1H15) VH: EVQLVQSGAEVKKPGESLKISCKGSGYTFSNYVIHWVRQMPGKGPEWTGYIIPGSGGTKFNEKFKGQATISVDKSITTAYLQWSSLKASDTAMYYCARDGAGSFTYWGQGTLVTVSS VL: DVVMTQSPLSLPVTLGQPASISCRSSQSLVHSDGNTYLHWFQQRPGQSPRLLIYRISNRFSGVPDRFSGSGSGTDFTLKISRVEAEDVGVYYCLQSTHFPDTFGGGTKVEIK" measure="Jagged1 IC50" unit_tag=nM observed_value=6.08
binder="rat.3107 (rat/human chimeric anti-Notch2 antibody 3107) (antibody, V domains shown) VH: QVQLQQSGAELAKSGSSVKISCKASGYTFSNYVIHWIKQTTGQAPEWTGYIIPGSGGTKFNEKFKGKATLTVDKSSTTAYMQLSSLTPVDTAVYYCARDGAGSFTYWGQGTLVTVSS VL: DVLMTQTPVSLPVSLGGQVSISCRSSQSLVHSDGNTYLHWFLQKPGQSPQLLIYRISNRFSGVPDRFSGSGSGTDFTLKISRVEPEDLGVYYCLQSTHFPDTFGGGTKVEIK" measure="Jagged1 IC50" unit_tag=nM observed_value=4.88
binder="hu.3107.L1H13 (antibody, V domains shown, also called hu.Notch-3107.L1H13) VH: EVQLVQSGAEVKKPGASVKVSCKASGYTFSNYVIHWVRQAPGQGPEWTGYIIPGSGGTKFNEKFKGRATSTVDTSITTAYMELSRLRSDDTVVYYCARDGAGSFTYWGQGTLVTVSS VL: DVVMTQSPLSLPVTLGQPASISCRSSQSLVHSDGNTYLHWFQQRPGQSPRLLIYRISNRFSGVPDRFSGSGSGTDFTLKISRVEAEDVGVYYCLQSTHFPDTFGGGTKVEIK" measure="Jagged1 IC50" unit_tag=nM observed_value=4.92
binder="hu.3107.L7H13 (antibody, V domains shown, also called hu.Notch-3107.L7H13) VH: EVQLVQSGAEVKKPGASVKVSCKASGYTFSNYVIHWVRQAPGQGPEWTGYIIPGSGGTKFNEKFKGRATSTVDTSITTAYMELSRLRSDDTVVYYCARDGAGSFTYWGQGTLVTVSS VL: DIVMTQSPDSLAVSLGERATINCRSSQSLVHSDGNTYLHWYQQKPGQPPKLLIYRISNRFSGVPDRFSGSGSGTDFTLTISSLQAEDVAVYYCLQSTHFPDTFGGGTKVEIK" measure="Jagged1 IC50" unit_tag=nM observed_value=5.94
binder="hu.3107.L7H14 (antibody, V domains shown, also called hu.Notch-3107.L7H14) VH: EVQLVQSGAEVKKPGESLKISCKGSGYTFSNYVIHWVRQMPGKGPEWTGYIIPGSGGTKFNEKFKGQATISVDKSSTTAYLQWSSLKASDTAMYYCARDGAGSFTYWGQGTLVTVSS VL: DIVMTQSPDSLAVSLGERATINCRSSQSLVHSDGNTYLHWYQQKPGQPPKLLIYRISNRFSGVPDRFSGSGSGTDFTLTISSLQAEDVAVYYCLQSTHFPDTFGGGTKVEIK" measure="Jagged1 IC50" unit_tag=nM observed_value=10.5
binder="hu.3107.L7H15 (antibody, V domains shown, also called hu.Notch-3107.L7H15) VH: EVQLVQSGAEVKKPGESLKISCKGSGYTFSNYVIHWVRQMPGKGPEWTGYIIPGSGGTKFNEKFKGQATISVDKSITTAYLQWSSLKASDTAMYYCARDGAGSFTYWGQGTLVTVSS VL: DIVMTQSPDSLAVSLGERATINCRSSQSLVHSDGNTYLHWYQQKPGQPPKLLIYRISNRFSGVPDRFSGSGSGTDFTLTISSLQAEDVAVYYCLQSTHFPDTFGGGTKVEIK" measure="Jagged1 IC50" unit_tag=nM observed_value=9.16
binder="hu.3107.L6H13 (antibody, V domains shown, also called hu.Notch-3107.L6H13) VH: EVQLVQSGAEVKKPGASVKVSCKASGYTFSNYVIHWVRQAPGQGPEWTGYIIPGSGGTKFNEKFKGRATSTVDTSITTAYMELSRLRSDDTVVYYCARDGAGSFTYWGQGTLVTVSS VL: DVVMTQSPDSLAVSLGERATINCRSSQSLVHSDGNTYLHWFQQKPGQPPKLLIYRISNRFSGVPDRFSGSGSGTDFTLTISSLQAEDVAVYYCLQSTHFPDTFGGGTKVEIK" measure="Jagged1 IC50" unit_tag=nM observed_value=6.42

// next item, Jagged1 IC50 requested
[ask] Given the binder hu.3107.L1H12 (antibody, V domains shown, also called hu.Notch-3107.L1H12) VH: EVQLVQSGAEVKKPGASVKVSCKASGYTFSNYVIHWVRQAPGQGPEWTGYIIPGSGGTKFNEKFKGRATSTVDTSSTTAYMELSRLRSDDTVVYYCARDGAGSFTYWGQGTLVTVSS VL: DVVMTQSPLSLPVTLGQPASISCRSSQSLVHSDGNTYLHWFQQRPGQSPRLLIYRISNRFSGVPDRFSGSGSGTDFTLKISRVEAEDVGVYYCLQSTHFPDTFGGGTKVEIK , write its reported Jagged1 IC50.
[reply] 7.85
